Cited source for all entries: patent US20030068675

study-system: T1, ZFP SBS#847 (synthetic)
T1 chain: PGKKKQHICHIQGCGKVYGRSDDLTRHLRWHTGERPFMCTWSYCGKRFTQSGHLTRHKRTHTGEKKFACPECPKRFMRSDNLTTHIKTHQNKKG
method-description: EMSA
experimental-context: tags: MBP fusion
pKd: −log10 of the molar value.
endpoint: pKd

INSERT INTO assay_data (binder, endpoint, measured_value) VALUES
  ('TAGGGAGCGT (dsDNA) DNA 1: TAGGGAGCGT DNA 2: ACGCTCCCTA', 'pKd', 6.82);
